# assay.method.text: cAMP Responsive Elements (CRE) small molecule antagonists, cell-based qHTS assay (AID 1963591)
# experimental.conditions: CRE-bla HEK293T, beta-lactamase FRET ratio; series mostly up to 92.4 µM
Inconclusive results are not listed. Active and inactive are the calls of the source. Calls follow the shape of the dose curve; as a rule, active = well fitted inhibition curve with a large enough effect in the signal ratio in the repeat runs (not every such curve was filed as active); inconclusive = weak or mixed curves, or effect the other way; inactive = flat fitted curve, though single readings scatter; the % refers to the signal ratio.
reported.metric: outcome

Example compounds with recorded outcome:
> print(dat)
                                   compound  reported.metric  recorded.result
1          c1ccc(OP(Oc2ccccc2)Oc2ccccc2)cc1          outcome         inactive
2                             Nc1ccc(Br)cc1          outcome         inactive
3                   Cc1ccc([N+](=O)[O-])cc1          outcome         inactive
4  CC(C)(C)C(O)(CCc1ccc(Cl)cc1)Cn1cncn1 (configuration not stated)          outcome         inactive
5                             CC(=O)C(Cl)Cl          outcome         inactive

For reference, reported outcome for ClC1=C(Cl)[C@]2(Cl)[C@@H]3[C@@H](Cl)[C@H](Cl)C[C@@H]3[C@@]1(Cl)C2(Cl)Cl stands at inactive

Summary for this compound, O=P(O)(O)CCCl : outcome is inactive

----------
# tgt: 5-hydroxytryptamine receptor 2A (Homo sapiens) (UniProt P28223)
# Sequence (P28223 whole entry, looked up): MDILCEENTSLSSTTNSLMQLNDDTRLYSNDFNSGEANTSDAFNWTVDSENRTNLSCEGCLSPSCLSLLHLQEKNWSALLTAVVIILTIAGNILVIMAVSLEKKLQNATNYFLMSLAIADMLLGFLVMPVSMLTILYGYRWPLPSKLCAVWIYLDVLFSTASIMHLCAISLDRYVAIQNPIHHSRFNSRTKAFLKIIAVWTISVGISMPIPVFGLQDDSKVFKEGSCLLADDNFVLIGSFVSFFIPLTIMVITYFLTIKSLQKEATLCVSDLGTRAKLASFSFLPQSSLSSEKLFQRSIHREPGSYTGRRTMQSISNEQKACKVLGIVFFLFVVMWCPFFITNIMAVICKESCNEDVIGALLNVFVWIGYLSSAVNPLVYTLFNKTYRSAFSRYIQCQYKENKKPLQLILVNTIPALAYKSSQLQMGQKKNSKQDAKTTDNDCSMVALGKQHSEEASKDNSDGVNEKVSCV
# assay.method.text: 5-hydroxytryptamine receptor 2A (HTR2A) small molecule agonists, cell-based qHTS assay (AID 1963587); also: nearly all actives have a fitted effect of over 30% in size
# experimental.conditions: HTR2A-CHO cells, calcium flux fluorescence, agonist mode; series mostly up to 76.8 µM
# Method: National Center for Advancing Translational Sciences [NCATS] Division of Preclinical Innovation [DPI] U.S. Environmental Protection Agency [EPA] National Institutes of Environmental Health Sciences [NIEHS] National Toxicology Program [NTP] […] HTR2A-CHO cells were dispensed at 2000 cells/3uL/well in 1536-well black-clear bottom plates using a Multidrop Dispenser. […] The fluorescence intensity in the plates was measured using FDSS 7000EX kinetic plate reader for 2 min at 1 sec intervals.
Inconclusive results are not listed. The source made the active and inactive calls. Calls come from the whole dose curve.
reported.metric: outcome

> print(dat)
                                   molecule  recorded.result
1  CCCOC(=O)c1cncn1C(C)c1ccccc1 (centres undefined)         inactive
2  CC(C)C(=O)OCC(C)(C)C(OC(=O)C(C)C)C(C)C (centres undefined)         inactive
3                     C[N+](C)(C)CC(=O)[O-]         inactive
4  CCC(=O)O[C@H]1CC[C@H]2[C@@H]3CCC4=CC(=O)CC[C@]4(C)[C@H]3CC[C@]12C         inactive
5  ClC1=C(Cl)C2(Cl)C3C(Cl)C(Cl)CC3C1(Cl)C2(Cl)Cl (centres undefined)         inactive
6   Nc1c(Br)cc([N+](=O)[O-])cc1[N+](=O)[O-]         inactive

For record O=C(CCl)c1ccc(Cl)cc1Cl the listed outcome is inactive

Entry Cc1ccccc1N , outcome reported as inactive

GET /value?item= Nc1cnn(-c2ccccc2)c(=O)c1Cl &field=outcome returns inactive

The value of outcome measured for the molecule C(=NC1CCCCC1)=NC1CCCCC1 turned out to be inactive

Consider CC(C)(c1ccccc1)c1ccc(O)c(C(C)(C)c2ccccc2)c1 . Its measured outcome is inactive

Record CCCCOCC1CO1 (centres undefined) , field outcome: inactive

outcome in this record for CCBr : inactive

# outcome (molecule: O=C(O)C(Cl)(Cl)Br ) is inactive

----------
# tgt: Muscarinic acetylcholine receptor M1 (Homo sapiens) (UniProt P11229)
# Sequence (P11229 whole entry, looked up): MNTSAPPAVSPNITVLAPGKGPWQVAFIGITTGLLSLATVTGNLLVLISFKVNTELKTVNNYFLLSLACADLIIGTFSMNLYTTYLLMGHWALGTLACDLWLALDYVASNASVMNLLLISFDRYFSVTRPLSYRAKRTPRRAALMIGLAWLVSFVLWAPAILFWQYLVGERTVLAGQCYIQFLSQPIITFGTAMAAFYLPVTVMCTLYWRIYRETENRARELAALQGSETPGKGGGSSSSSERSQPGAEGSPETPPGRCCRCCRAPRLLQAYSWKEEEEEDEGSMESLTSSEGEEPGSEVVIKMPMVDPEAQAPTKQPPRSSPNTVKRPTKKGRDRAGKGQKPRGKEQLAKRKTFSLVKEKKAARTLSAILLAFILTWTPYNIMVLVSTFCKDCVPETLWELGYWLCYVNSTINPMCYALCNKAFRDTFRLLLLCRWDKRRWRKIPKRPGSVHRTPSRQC
# assay.method.text: Cholinergic receptor muscarinic 1 (CHRM1) small molecule agonists, cell-based qHTS assay (AID 1963589); also: nearly all actives have a fitted effect of over 35% in size
# experimental.conditions: CHRM1-CHO cells, agonist mode, calcium flux fluorescence; series mostly up to 76.8 µM
Active and inactive are the calls of the source. Calls follow the shape of the full dose curve.
reported.metric: activation

Some molecules with recorded activation:
> print(dat)
                                   molecule  reported.metric  recorded.result
1            N#Cc1c(Cl)c(Cl)c(Cl)c(C#N)c1Cl       activation         inactive
2    COCC(=O)N(c1c(C)cccc1C)[C@H](C)C(=O)OC       activation         inactive
3               OCC1CO1 (centres undefined)       activation         inactive
4  CC(C)CCCCCCOC(=O)c1ccccc1C(=O)OCCCCCCC(C)C       activation         inactive
5                       CCCCCc1cc(O)cc(O)c1       activation         inactive

Result for CCCN(CCOc1c(Cl)cc(Cl)cc1Cl)C(=O)n1ccnc1 , tested on Muscarinic acetylcholine receptor M1 (Homo sapiens) (UniProt P11229), activation: inactive

Assay Muscarinic acetylcholine receptor M1 (Homo sapiens) (UniProt P11229), sample COC(=O)Nc1nc2ccccc2[nH]1 , activation read: inactive

Tested on Muscarinic acetylcholine receptor M1 (Homo sapiens) (UniProt P11229), the item COC(=O)c1sccc1S(=O)(=O)NC(=O)Nc1nc(C)nc(OC)n1 showed activation equal to inactive

Known value: Muscarinic acetylcholine receptor M1 (Homo sapiens) (UniProt P11229) activation of the molecule CC(=O)C=C(C)C equals inactive

activation for Muscarinic acetylcholine receptor M1 (Homo sapiens) (UniProt P11229) with input C=CC(=O)OCCCCCC(C)C equals inactive

Here CC1(C)Cc2cccc(O)c2O1 was tested on Muscarinic acetylcholine receptor M1 (Homo sapiens) (UniProt P11229), and its activation came to inactive

Record C=CCN(CC=C)C(=O)C(Cl)Cl / Muscarinic acetylcholine receptor M1 (Homo sapiens) (UniProt P11229), activation recorded as inactive

# activation measured on Muscarinic acetylcholine receptor M1 (Homo sapiens) (UniProt P11229) for item COc1ccc(C=O)cc1OC = inactive

Here O=[N+]([O-])c1ccccc1 was tested on Muscarinic acetylcholine receptor M1 (Homo sapiens) (UniProt P11229), and its activation came to inactive

----------
# tgt: Beta-2 adrenergic receptor (Homo sapiens) (UniProt P07550)
# Sequence (P07550 whole entry, looked up): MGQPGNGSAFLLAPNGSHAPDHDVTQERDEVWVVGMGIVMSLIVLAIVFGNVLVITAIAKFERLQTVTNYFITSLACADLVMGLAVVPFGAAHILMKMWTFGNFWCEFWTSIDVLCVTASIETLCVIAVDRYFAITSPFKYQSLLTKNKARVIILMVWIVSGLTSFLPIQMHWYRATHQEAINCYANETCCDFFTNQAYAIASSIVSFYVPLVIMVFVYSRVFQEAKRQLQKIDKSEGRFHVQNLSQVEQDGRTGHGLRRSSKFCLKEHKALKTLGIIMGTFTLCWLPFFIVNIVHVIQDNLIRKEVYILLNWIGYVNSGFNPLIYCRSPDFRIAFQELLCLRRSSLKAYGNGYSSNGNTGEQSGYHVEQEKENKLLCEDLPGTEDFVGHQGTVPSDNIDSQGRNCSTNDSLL
# assay.method.text: Adrenergic beta2 receptor (ADRB2) small molecule agonists, cell-based qHTS assay (AID 1963593);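 also: CHO cells stably overexpressing human ADRB2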
# experimental.conditions: CHO-ADRB2 cells, cAMP HTRF, 30 min; series mostly up to 92.4 µM
Records with an inconclusive call do not appear. Active and inactive are the calls of the source. The call rests on the fitted dose curve.
Hi there, use one of these labels in your reply, thanks! active, inactive

> print(dat)
                                   compound  class.assignment
1                              BrCCc1ccccc1          inactive
2  CC(C)CCCCCOC(=O)c1ccccc1C(=O)OCCCCCC(C)C          inactive
3                            CC[N+](=O)[O-]          inactive
4  CC12CC1(C)C(=O)N(c1cc(Cl)cc(Cl)c1)C2=O (centres undefined)          inactive

stdin: Recorded call for CN(C)[C@@H]1C(=O)C(C(N)=O)=C(O)[C@@]2(O)C(=O)C3=C(O)c4c(O)cccc4[C@@](C)(O)[C@H]3[C@H](O)[C@@H]12 ?
stdout: inactive

stdin: Would you mind telling me which call this test gave Nc1ccncc1 ?
stdout: inactive

stdin: Look up the recorded call for C[C@]12CCC(=O)C=C1CC[C@@H]1[C@@H]2CC[C@@]2(C)[C@H]1CC[C@]2(C)O in this test.
stdout: inactive

----------
# assay.method.text: p53 small molecule agonists, cell-based qHTS assay with rat liver microsomes: qHTS cell viability counter screen (AID 1963580); also: nearly all actives have a fitted effect of over 45% in size
# experimental.conditions: p53RE-bla HCT-116 + rat microsomes, ATP viability, 16 h; series mostly up to 66 µM
# Text: National Center for Advancing Translational Sciences [NCATS] Division of Preclinical Innovation [DPI] U.S. Environmental Protection Agency [EPA] National Institutes of Environmental Health Sciences [NIEHS] National Toxicology Program [NTP] U.S. Food and Drug Administration [FDA] p53, a tumor suppressor protein, is activated following cellular insult, including DNA damage and other cellular stresses. […] The activation of the reporter gene under culture conditions can be detected by fluorescence intensity. […]
Results filed as inconclusive are left out. Calls of active or inactive are those of the source. Calls follow the shape of the full dose curve.
reported.metric: outcome

In the examples that follow, each entry is paired with its recorded outcome.
> print(dat)
                                  compound  recorded.result
 1         CN1CCC(N(Cc2ccccc2)c2ccccc2)CC1         inactive
 2                                 CCCCCCI         inactive
 3     COc1cc(OC)nc(Sc2cccc(Cl)c2C(=O)O)n1         inactive
 4     CN(C)CCc1c[nH]c2cccc(OP(=O)(O)O)c12         inactive
 5      c1ccc(C2CO2)cc1 (stereo not given)         inactive
 6                              N#CC(Cl)Cl         inactive
 7                        c1ccc2c(c1)CCCC2         inactive
 8  COCC(=O)N(c1c(C)cccc1C)[C@H](C)C(=O)OC         inactive
 9                       COc1ccc(C=O)cc1OC         inactive
10                             CCc1ccccc1C         inactive

Measured outcome of C[C@]12CC[C@H]3[C@@H](CCC4=CC(=O)CC[C@@H]43)[C@@H]1CC[C@@H]2O : inactive

N#CCBr yielded outcome of inactive

The compound listed as c1nc[nH]n1 has a reported outcome of inactive

outcome for CC12CC1(C)C(=O)N(c1cc(Cl)cc(Cl)c1)C2=O (stereo not given) is inactive

Lab note: CC(Cl)(Cl)C(=O)O gave outcome of inactive
